Molecular target: GABA-A receptor; alpha-5/beta-3/gamma-2 (Homo sapiens, UniProt P18507+P28472+P31644)
Sequence (P18507 whole entry): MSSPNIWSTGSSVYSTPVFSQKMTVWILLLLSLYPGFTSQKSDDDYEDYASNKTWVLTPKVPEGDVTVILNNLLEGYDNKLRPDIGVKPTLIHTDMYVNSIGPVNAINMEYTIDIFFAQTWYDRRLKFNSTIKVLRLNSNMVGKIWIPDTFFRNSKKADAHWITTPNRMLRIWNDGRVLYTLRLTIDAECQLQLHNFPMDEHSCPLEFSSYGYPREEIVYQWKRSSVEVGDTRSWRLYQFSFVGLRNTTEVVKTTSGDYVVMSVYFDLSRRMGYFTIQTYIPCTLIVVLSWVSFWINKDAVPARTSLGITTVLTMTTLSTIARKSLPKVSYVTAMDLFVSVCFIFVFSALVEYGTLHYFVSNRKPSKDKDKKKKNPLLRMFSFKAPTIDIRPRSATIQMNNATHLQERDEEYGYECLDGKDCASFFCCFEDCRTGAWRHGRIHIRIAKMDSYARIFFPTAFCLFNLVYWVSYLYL
Sequence (P28472 whole entry): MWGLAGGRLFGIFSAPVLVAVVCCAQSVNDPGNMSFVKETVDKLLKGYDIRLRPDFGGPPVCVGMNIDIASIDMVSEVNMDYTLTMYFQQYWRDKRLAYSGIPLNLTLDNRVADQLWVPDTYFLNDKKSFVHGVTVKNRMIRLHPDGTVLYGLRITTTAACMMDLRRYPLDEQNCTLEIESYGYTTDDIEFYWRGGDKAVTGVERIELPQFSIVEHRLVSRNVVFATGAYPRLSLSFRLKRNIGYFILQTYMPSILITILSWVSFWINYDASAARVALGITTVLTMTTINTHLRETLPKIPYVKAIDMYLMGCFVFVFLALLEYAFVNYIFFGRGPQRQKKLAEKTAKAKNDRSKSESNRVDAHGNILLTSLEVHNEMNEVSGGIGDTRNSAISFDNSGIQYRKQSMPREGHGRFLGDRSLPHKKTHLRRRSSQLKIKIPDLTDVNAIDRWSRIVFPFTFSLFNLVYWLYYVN
Sequence (P31644 whole entry): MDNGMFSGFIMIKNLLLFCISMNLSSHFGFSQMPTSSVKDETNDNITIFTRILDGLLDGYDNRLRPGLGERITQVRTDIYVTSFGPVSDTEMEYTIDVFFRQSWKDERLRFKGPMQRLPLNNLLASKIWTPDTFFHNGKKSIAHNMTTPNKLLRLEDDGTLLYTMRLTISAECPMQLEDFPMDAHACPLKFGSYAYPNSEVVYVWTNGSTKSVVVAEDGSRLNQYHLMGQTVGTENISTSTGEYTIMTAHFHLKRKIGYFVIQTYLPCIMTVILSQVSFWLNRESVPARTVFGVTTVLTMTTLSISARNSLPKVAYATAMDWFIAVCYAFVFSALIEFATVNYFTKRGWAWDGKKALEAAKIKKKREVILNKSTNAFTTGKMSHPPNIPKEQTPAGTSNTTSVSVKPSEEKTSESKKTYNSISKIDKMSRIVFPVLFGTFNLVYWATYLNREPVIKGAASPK
Assay: Displacement of [3H]flunitrazepam from human recombinant GABAA alpha-5-beta-3-gamma-2 receptor expressed in HEK cells by liquid scintillation counting
pKi: −log10 of the molar value.
# label = Condition met if pKi >= 7 else Condition not met

Here are 4 compounds together with their reported answers.
CC(C)(C)OC(=O)c1ccc2[nH]c3ccc(C#Cc4ccc5[nH]c6ccc(C(=O)OC(C)(C)C)cc6c5c4)cc3c2c1 = Condition not met
CC(C)(C)OC(=O)c1cc2c(cn1)[nH]c1ccc(C#Cc3ccc4[nH]c5cnc(C(=O)OC(C)(C)C)cc5c4c3)cc12 = Condition not met
C[Si](C)(C)C#Cc1ccc2[nH]c3cnc(C(=O)OCC(F)(F)F)cc3c2c1 = Condition not met
CC(C)(C)OC(=O)c1cc2c(cn1)[nH]c1ccc(C(C)(C)C)cc12 = Condition met

Now turn to the next compound.
I'd appreciate it if you could say whether `CC(C)CCOc1cc2c3ccccc3nc-2c[nH]1` has pKi at least equal to 7.
Condition not met

The reported numbers originate from ChEMBL document CHEMBL1268934.
